system: PPARg DBDmut:RXRa IVT, anti-PPARg (DBD mutation: PPARg1 K132A/R137A, NR concentration 270 nM, RXRa partner concentration 90 nM); assay: PBM binding z-score (relative to random genomic background probes); higher = stronger binding; sequences stand for … in GC…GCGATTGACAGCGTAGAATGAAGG
Readings of PBM binding z-score for the listed sequences
// return just the number, without any unit appended

{"residue.string": "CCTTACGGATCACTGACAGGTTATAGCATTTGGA", "PBM binding z-score": 0.405}
{"residue.string": "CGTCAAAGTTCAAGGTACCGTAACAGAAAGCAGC", "PBM binding z-score": 0.0848}

Requested field: PBM binding z-score. Item: "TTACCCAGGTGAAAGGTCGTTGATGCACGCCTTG"
1.04
